Recorded Mean % WT Binding values for a group of binders are listed next.
- tested-system: human CD33 R91A (human, UniProt P20138 18-364)
- Sequence (P20138 18-364 R91A limits assumed): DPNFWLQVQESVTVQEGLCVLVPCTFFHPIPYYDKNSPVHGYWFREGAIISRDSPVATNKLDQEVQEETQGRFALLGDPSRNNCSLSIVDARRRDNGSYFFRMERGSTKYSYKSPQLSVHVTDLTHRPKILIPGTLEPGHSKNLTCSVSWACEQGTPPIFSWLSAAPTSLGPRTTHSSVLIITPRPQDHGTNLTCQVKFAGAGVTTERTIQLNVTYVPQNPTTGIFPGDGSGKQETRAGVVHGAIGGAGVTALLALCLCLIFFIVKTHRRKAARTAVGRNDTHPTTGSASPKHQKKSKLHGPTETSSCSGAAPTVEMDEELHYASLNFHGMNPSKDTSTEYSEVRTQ
- measurement-notes: alanine scan, flow cytometry;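 note: HEK293-T cells transiently expressing single-residue alanine mutants of CD33 (alanine swapped to serine), antibody binding read by fluorescence in duplicate, background-subtracted, expressed relative to wild-type CD33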

{"binder": "Refmab #1 (antibody, V domains shown, Full-length format is human IgG1 (Absolute Antibody Ab00283-10.0); The alanine scan used IgG or Fab; also called hP67.6) VH: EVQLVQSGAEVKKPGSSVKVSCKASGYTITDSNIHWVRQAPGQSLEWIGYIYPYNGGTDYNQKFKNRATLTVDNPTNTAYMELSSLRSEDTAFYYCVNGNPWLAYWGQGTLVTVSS VL: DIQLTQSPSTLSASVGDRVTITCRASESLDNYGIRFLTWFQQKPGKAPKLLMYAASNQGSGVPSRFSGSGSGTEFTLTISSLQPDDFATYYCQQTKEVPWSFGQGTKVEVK", "Mean % WT Binding, % WT": 82}
{"binder": "Refmab #2 (antibody, V domains shown, Full-length format is human IgG1 Fc silent (PG-LALA); The alanine scan used IgG or Fab) VH: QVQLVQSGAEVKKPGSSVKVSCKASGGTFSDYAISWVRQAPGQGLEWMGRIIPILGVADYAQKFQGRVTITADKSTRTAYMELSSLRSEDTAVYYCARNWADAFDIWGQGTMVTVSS VL: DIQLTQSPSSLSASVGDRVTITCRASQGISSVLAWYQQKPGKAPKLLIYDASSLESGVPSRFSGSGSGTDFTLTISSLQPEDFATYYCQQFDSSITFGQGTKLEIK", "Mean % WT Binding, % WT": 119}
{"binder": "Refmab #4 (antibody, V domains shown, Full-length format is human IgG1 Fc silent (PG-LALA); The alanine scan used IgG or Fab) VH: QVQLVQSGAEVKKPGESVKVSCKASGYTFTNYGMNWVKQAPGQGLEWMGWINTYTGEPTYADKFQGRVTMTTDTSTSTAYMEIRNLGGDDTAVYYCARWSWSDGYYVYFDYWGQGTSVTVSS VL: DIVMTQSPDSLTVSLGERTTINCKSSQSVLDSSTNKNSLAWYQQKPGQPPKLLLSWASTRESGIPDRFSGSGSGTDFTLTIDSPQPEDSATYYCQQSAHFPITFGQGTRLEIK", "Mean % WT Binding, % WT": 100}
{"binder": "Refmab #3 (antibody, V domains shown, Full-length format is human IgG1 Fc silent (PG-LALA); The alanine scan used IgG or Fab) VH: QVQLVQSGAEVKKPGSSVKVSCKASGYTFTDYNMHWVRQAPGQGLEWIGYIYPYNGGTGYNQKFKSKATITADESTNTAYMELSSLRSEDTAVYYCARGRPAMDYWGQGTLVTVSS VL: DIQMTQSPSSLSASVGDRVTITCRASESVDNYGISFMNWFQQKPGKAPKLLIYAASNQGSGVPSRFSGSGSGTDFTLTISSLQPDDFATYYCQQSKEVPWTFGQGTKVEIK", "Mean % WT Binding, % WT": 150}
